Tested on: β-CA (MpaCA) from Malassezia pachydermatis (Malassezia pachydermatis, UniProt A0A0M8MPA4)
Sequence (A0A0M8MPA4 1-242): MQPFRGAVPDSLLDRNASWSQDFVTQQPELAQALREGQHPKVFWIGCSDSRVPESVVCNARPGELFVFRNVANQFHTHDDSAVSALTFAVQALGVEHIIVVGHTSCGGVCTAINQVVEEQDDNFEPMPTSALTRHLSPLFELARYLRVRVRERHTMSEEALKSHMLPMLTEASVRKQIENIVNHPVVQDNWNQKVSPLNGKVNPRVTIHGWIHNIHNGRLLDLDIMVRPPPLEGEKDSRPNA
Assay procedure: biochemical
Assay context: recombinant enzyme, stopped-flow CO2 hydration, mean from three assays, errors ±5–10%, 15 min preincubation
Reported endpoint: Ki (µM)
Please state the figure in µM; there is no need to write the unit.

[[record]]
molecule = "Nc1nnc(S(N)(=O)=O)s1 [compound 13]"
reported_endpoint = "Ki"
output_unit = "µM"
endpoint_value = 1.09

[[record]]
molecule = "Nc1cc(Cl)c(S(N)(=O)=O)cc1S(N)(=O)=O [compound 12]"
reported_endpoint = "Ki"
output_unit = "µM"
endpoint_value = 2.74

[[record]]
molecule = "Nc1ccc(S(N)(=O)=O)cc1F [compound 7]"
reported_endpoint = "Ki"
output_unit = "µM"
endpoint_value = 2.48

[[record]]
molecule = "NS(=O)(=O)c1ccc(O)cc1 [compound 15]"
reported_endpoint = "Ki"
output_unit = "µM"
endpoint_value = 0.61

[[record]]
molecule = "NS(=O)(=O)c1ccc(N2CCCCS2(=O)=O)cc1 [SLT, Sulthiame, reference compound]"
reported_endpoint = "Ki"
output_unit = "µM"
endpoint_value = 1.88


Ki in this record for NC(N)=Nc1nc(CSCCC(N)=NS(N)(=O)=O)cs1 [FAM, Famotidine, reference compound] : 4.91

What the record says about Nc1ccc(S(=O)(=O)Nc2ccc(S(N)(=O)=O)cc2)cc1 [compound 22] : Ki is 1.37

Given item NS(=O)(=O)c1ccc(S(=O)(=O)Nc2cccc3c(Cl)c[nH]c23)cc1 [IND, Indisulam E7070, reference compound] , the value recorded as its Ki is 4.82

Field Ki (entry Cc1ccc(S(N)(=O)=O)cc1 [compound 4] ) reads 1.09

Short answer for NS(=O)(=O)c1cc(Cl)cc(Cl)c1O [compound 10] : Ki was 2.01

###

Tested on: UniProt A0A0M8MPA4
Sequence (A0A0M8MPA4 1-242): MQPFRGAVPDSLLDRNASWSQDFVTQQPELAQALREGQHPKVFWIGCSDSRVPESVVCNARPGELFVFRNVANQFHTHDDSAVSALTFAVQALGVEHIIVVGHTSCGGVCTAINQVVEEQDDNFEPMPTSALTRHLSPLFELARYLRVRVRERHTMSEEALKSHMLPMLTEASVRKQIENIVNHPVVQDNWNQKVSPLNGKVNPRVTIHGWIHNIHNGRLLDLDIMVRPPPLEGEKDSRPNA
Assay procedure: biochemical
Assay context: recombinant enzyme, stopped-flow CO2 hydration, mean from three assays, errors ±5–10%, 15 min preincubation
Reported endpoint: pKi
Just so you know, pKi here is -log10 of the concentration in molar units; reply with that number alone.

Example cases with answers are listed next.
[[record]]
compound = "NS(=O)(=O)Cc1noc2ccccc12 [ZNS, Zonisamide, reference compound]"
reported_endpoint = "pKi"
endpoint_value = 5.62

[[record]]
compound = "NCc1ccc(S(N)(=O)=O)cc1"
reported_endpoint = "pKi"
endpoint_value = 5.66

[[record]]
compound = "NS(=O)(=O)c1cccc(S(N)(=O)=O)c1"
reported_endpoint = "pKi"
endpoint_value = 5.82

[[record]]
compound = "Cc1ccc(-c2cc(C(F)(F)F)nn2-c2ccc(S(N)(=O)=O)cc2)cc1 [CLX, Celecoxib, reference compound]"
reported_endpoint = "pKi"
endpoint_value = 7.22

[[record]]
compound = "NS(=O)(=O)c1ccc(CO)cc1"
reported_endpoint = "pKi"
endpoint_value = 5.97

[[record]]
compound = "Nc1ccc(S(=O)(=O)NCc2ccc(S(N)(=O)=O)cc2)cc1"
reported_endpoint = "pKi"
endpoint_value = 6.59

[[record]]
compound = "NS(=O)(=O)c1nnc(NS(=O)(=O)c2ccccc2)s1 [BZA, Benzolamide, reference compound]"
reported_endpoint = "pKi"
endpoint_value = 6.92

[[record]]
compound = "Nc1ccc(S(N)(=O)=O)cc1Cl"
reported_endpoint = "pKi"
endpoint_value = 5.77


Entry Cn1nc(S(N)(=O)=O)sc1=N , pKi reported as 6.24

Entry CCN[C@H]1CN(CCCOC)S(=O)(=O)c2sc(S(N)(=O)=O)cc21 [BRZ, Brinzolamide, reference compound] — recorded pKi = 6.26

###

Tested on: UniProt:A0A0M8MPA4
Assay procedure: biochemical
Assay context: recombinant enzyme, stopped-flow CO2 hydration, mean from three assays, errors ±5–10%, 15 min preincubation
This listing pairs compounds with measured Ki.
Provide the reading as a plain figure in nM.

Observe how each entry below is paired with its result.
[[record]]
compound = "NS(=O)(=O)c1ccc(CCNS(=O)(=O)c2ccc([N+](=O)[O-])cc2CO)cc1"
reported_endpoint = "Ki"
endpoint_value = 270

[[record]]
compound = "NS(=O)(=O)c1cc2c(cc1Cl)NCNS2(=O)=O [HCT, Hydrochlorothiazide, reference compound]"
reported_endpoint = "Ki"
endpoint_value = 260


From here, focus on the item given below.
Entry Nc1ccc(S(=O)(=O)NCCc2ccc(S(N)(=O)=O)cc2)cc1 , Ki reported as 1270
